Attribution: PubChem BioAssay AID488936

test: reduction of caspase-3/7 signal in INS-1E – INS-1E rat cells, dry powder, set 2, orthogonal assay for beta-cell apoptosis inhibitor project, dose response (AID 488936); details: INS-1E cytokine-induced caspase-3/7 luminescence, 48 h; at 23.5 µM (top of the series)
The source made the active and inactive calls.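 How the source made its calls: active means compounds lowering caspase luminescence whose fitted AC50 is at most ten times their top valid dose; inconclusive means flat partial inhibition or a poor quality curve fit; inactive means the rest.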
result.type: activity change, negative = inhibition

COc1ccc(S(=O)(=O)N(C)C[C@@H]2Oc3c(NC(=O)C4CC4)cccc3C(=O)N([C@@H](C)CO)C[C@H]2C)cc1 :: -6.93% (inactive)
COc1ccc(S(=O)(=O)N(C)C[C@@H]2Oc3c(cccc3N(C)C)C(=O)N([C@@H](C)CO)C[C@H]2C)cc1 :: -4.48% (inactive)
Cc1ccc(S(=O)(=O)N(C)C[C@@H]2Oc3c(NC(=O)Nc4cccc5ccccc45)cccc3C(=O)N([C@H](C)CO)C[C@H]2C)cc1 :: -12.7% (inactive)
COc1ccc(S(=O)(=O)N(C)C[C@@H]2Oc3c(NS(=O)(=O)c4ccc(C)cc4)cccc3C(=O)N([C@@H](C)CO)C[C@H]2C)cc1 :: -2.16% (inactive)
C[C@@H]1CN([C@@H](C)CO)C(=O)c2cccc(NC(=O)Nc3cccc4ccccc34)c2O[C@H]1CN(C)C(=O)Nc1ccccc1 :: 14.9% (inactive)
COc1ccc(S(=O)(=O)N(C)C[C@@H]2Oc3c(NC(=O)Nc4ccc(F)cc4)cccc3C(=O)N([C@@H](C)CO)C[C@H]2C)cc1 :: -9.69% (inactive)
C[C@@H]1CN([C@@H](C)CO)C(=O)c2cccc(NC(=O)Nc3cccc4ccccc34)c2O[C@H]1CN(C)C(=O)Nc1ccc(C(F)(F)F)cc1 :: 45.3% (inactive)

Answer with the recorded activity change, negative = inhibition for the compound listed here: COc1ccc(S(=O)(=O)N(C)C[C@@H]2Oc3c(NC(=O)C4CCOCC4)cccc3C(=O)N([C@@H](C)CO)C[C@H]2C)cc1
-8.46% (inactive)
